The measured values listed here are drawn from patent US6274557A.

# SYSTEM NAME: recombinant bovine endothelial nitric oxide synthase (eNOS) (Bos taurus, UniProt P29473)
# Construct: made in house; host or cells: E. coli
# EXPERIMENT SUMMARY: Hemoglobin capture assay of nitric oxide formation, eNOS
# Format: biochemical
# MEASUREMENT SETUP: Table 2, Dixon plots
Peptide text beside a SMILES is read from it.
READOUT LABEL: pKi
pKi here is simply -log10 of the concentration when that concentration is written in mol/L.

{"columns": ["COMPOUND", "QUANTITATIVE RESULT"],
 "data": [
  ["N=C(NCCC[C@H](N)C(=O)N[C@@H](Cc1ccccc1)C(=O)OCc1ccccc1)N[N+](=O)[O-]", 3.90],
  ["N=C(NCCC[C@@H](NC(=O)[C@H](N)Cc1ccccc1)C(=O)O)N[N+](=O)[O-] [compound 13, D-Phe-D-Arg^NO2] (HELM PEPTIDE1{[dF].[N=C(NCCC[C@@H](N[*:1])C(=O)O)N[N+](=O)[O-]]}$$$$V2.0)", 4.05]
]}

Next compound, pKi to be filled in.
Using the record for COC(=O)[C@H](CCCNC(=N)N[N+](=O)[O-])NC(=O)[C@@H](N)Cc1ccccc1 [compound 4, L-Phe-L-Arg^NO2 -OMe] (HELM PEPTIDE1{F.[N=C(NCCC[C@H](N[*:1])C(=O)[*:2])N[N+](=O)[O-]].[CO[*:1]]}$$$$V2.0) , report its pKi.
2.87
